- Subject of test: Cyclin-dependent kinase 5 (Homo sapiens, UniProt Q00535)
- Sequence (Q00535 whole entry): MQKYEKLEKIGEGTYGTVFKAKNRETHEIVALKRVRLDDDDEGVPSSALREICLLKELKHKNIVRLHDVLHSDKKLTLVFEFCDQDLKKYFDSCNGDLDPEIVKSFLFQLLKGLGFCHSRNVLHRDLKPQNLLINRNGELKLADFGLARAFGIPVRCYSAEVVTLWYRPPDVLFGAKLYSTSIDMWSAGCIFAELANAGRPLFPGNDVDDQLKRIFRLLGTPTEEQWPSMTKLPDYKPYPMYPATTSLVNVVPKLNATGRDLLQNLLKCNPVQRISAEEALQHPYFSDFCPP
- Assay type: functional
The source made the active and inactive calls.
Form entry, call: pick from t = active, f = inactive

Input line: Answer briefly: the call reported for Oc1ccc(-c2nc(-c3ccncc3)c(-c3ccc(F)cc3)[nH]2)cc1 in this assay.
Output line: f

Input line: Now the same for COc1cccc(C(C)NC(=O)c2sc(-c3ccncc3)nc2C)c1 (centres undefined)
Output line: f

Input line: Now the same for CCCCC(=O)Nc1cc(-c2c[nH]c3ncccc23)cc(Cl)n1
Output line: t

Input line: Now the same for O=C(Nc1ccc(CO)cc1)c1cnn2c(-c3ccccc3)ccnc12
Output line: f

Reference for the values: ChEMBL document CHEMBL1201862
